# EXPERIMENTAL TARGET: Atrial natriuretic peptide receptor 1 (Homo sapiens) (UniProt P16066)
# Sequence (P16066 whole entry, looked up): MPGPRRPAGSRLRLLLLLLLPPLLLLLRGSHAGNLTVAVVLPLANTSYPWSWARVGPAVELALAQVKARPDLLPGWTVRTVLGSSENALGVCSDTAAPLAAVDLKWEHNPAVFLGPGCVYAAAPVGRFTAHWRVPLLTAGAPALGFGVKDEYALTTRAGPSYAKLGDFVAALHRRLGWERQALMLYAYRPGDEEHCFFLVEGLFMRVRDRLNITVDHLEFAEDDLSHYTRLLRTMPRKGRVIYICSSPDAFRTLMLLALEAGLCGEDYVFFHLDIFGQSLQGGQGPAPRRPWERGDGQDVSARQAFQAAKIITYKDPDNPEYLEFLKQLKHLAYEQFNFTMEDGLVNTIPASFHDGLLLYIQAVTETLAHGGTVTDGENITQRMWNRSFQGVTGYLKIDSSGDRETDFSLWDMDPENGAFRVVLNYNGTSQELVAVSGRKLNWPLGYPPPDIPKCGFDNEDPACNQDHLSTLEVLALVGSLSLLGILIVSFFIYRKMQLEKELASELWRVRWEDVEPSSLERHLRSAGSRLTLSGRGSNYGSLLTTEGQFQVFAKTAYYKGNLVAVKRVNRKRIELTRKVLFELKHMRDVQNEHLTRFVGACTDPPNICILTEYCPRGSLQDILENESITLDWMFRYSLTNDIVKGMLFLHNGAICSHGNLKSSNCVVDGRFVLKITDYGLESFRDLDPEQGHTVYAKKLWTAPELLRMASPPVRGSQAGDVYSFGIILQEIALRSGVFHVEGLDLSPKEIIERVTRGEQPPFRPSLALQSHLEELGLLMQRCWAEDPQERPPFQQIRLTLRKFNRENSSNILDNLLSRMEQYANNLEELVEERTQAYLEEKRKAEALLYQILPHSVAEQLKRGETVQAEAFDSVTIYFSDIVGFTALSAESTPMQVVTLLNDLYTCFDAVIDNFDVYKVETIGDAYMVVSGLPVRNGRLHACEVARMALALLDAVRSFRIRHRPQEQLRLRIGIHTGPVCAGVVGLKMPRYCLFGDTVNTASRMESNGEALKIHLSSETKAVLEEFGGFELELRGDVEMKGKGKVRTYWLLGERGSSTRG
# ASSAY REMARKS: Natriuretic polypeptide receptor (hNpr1) antagonism - Pilot CMLD screen (AID 1347052);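 note: HEK293 cells with hNpr1 stimulated by hNppA peptide at 0.1 nM; cGMP level read as GloSensor luciferase luminescence after agonist stimulation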
# CONDITION INFO: HEK293 hNpr1 GloSensor cGMP luminescence, ANP-stimulated; series mostly up to 9.22 µM
Results filed as inconclusive are left out. Calls of active or inactive are those of the source. Calls come from the whole dose curve.
MEASUREMENT KIND: outcome

compound=C#CCOCC#CC[C@@]1(C(=O)OC)C=C[C@@H](C)[C@H](c2ccccc2Br)N1C(=O)C(F)(F)F experimental_target="Atrial natriuretic peptide receptor 1 (Homo sapiens) (UniProt P16066)" assay_result=inactive
compound="COC(=O)CCCC1=CC2=CC(=O)C(C)(OC(=O)c3cccs3)C(=O)C2=CN1CCc1c[nH]c2ccccc12 (stereo not given)" experimental_target="Atrial natriuretic peptide receptor 1 (Homo sapiens) (UniProt P16066)" assay_result=inactive
compound=COC(=O)c1ccc(CN2C(=O)[C@]3(OCCC=C[C@@H]3C)c3ccccc32)cc1 experimental_target="Atrial natriuretic peptide receptor 1 (Homo sapiens) (UniProt P16066)" assay_result=inactive
compound=C[C@@H]1[C@@H](c2ccccc2)c2cc3ccccc3nc2-c2nc3ccccc3cc2[C@H]1C(=O)N1CCCC1 experimental_target="Atrial natriuretic peptide receptor 1 (Homo sapiens) (UniProt P16066)" assay_result=inactive

Now, please, on to the next compound.
Q: Form: Entry = C=CCC(C)(NCc1ccccc1)C(=O)OCC (stereo not given) | System = Atrial natriuretic peptide receptor 1 (Homo sapiens) (UniProt P16066) | outcome = ____
A: inactive

###

# ASSAY REMARKS: U-118MG Cancer Cell Toxicity qHTS against the NCATS CANVASS Library (AID 1347351)
# CONDITION INFO: U-118MG viability, CellTiter-Glo luminescence, 72 h; series mostly up to 38.3 µM
# Excerpt: Natural products and their derivatives continue to be wellsprings of nascent therapeutic potential. […] To address this issue, the Canvass library of natural products was assembled (https://tripod.nih.gov/canvass), in collaboration with academic and industry researchers, for quantitative high-throughput screening (qHTS) across a diverse set of cell-based and biochemical assays. […]
Results filed as inconclusive are left out. The source made the active and inactive calls. Calls follow the shape of the dose curve; as a rule, active = well fitted cell-killing curve with a large enough effect; inconclusive = small, poorly fitted or top-dose-only effect; inactive = flat fitted curve, though single readings scatter.
Return exactly one item of T = active, F = inactive

Solved entries:
compound="CC(O)/C=C/C1(O)C(C)(C)CC(O)CC1(C)O (configuration not stated)" label_class=F
compound=C/C1=C/[C@@H](C)[C@H](O)C/C=C/CC/C=C/C(=O)O[C@@H]1[C@H](C)C(=O)/C=C/CC1CC(=O)NC(=O)C1 label_class=T
compound=O=Cc1ccc2n1C[C@@]1(OC2)O[C@H](CO)[C@@H](O)[C@@H]1O label_class=F

Q: # fetch the recorded call for `C1=C2CCCN[C@@H]2[C@@H]2CCN3CCCC[C@@H]3[C@H](C1)C2` here
A: F

Q: # fetch the recorded call for `COc1ccc(CCCc2cc(O)c(OC)c(O)c2)c(O)c1O` here
A: F

Q: # fetch the recorded call for `CC(C)=CCC[C@@H](C)[C@@H]1CC[C@@]2(C)C[C@H]3C(C)=CC(=O)[C@@H]3/C(C=O)=C\C[C@H]12` here
A: T

Q: # fetch the recorded call for `CC(=O)NC[C@@H]1O[C@H](CC/C=C(C)/C(C)=C/C=O)[C@H](C)C[C@H]1O` here
A: F

###

# EXPERIMENTAL TARGET: Endonuclease 4 (Escherichia coli (strain K12))
# ASSAY REMARKS: Counterscreen for APE1 Inhibitors: qHTS Validation Assay for Inhibitors of Endonuclease IV (AID 1708)
# CONDITION INFO: E. coli endonuclease IV, DNA cleavage fluorescence; series mostly up to 57.1 µM
Records with an inconclusive call do not appear. Calls of active or inactive are those of the source. Calls come from the whole dose curve; as a rule, active = well fitted inhibition curve with a large enough effect; inconclusive = small, poorly fitted or top-dose-only effect; inactive = no such curve, though single readings can be large or run the other way.
Return exactly one item of active, inactive

Solved entries:
molecule=S=C(Nc1ccccc1)Nc1nccs1 experimental_target="Endonuclease 4 (Escherichia coli (strain K12))" label_class=inactive
molecule=COc1[nH]c2ccc(F)cc2c1C(=O)OCC1CCN(CCNS(C)(=O)=O)CC1 experimental_target="Endonuclease 4 (Escherichia coli (strain K12))" label_class=inactive
molecule=Cc1cccc(/C=C/c2ccccc2)n1 experimental_target="Endonuclease 4 (Escherichia coli (strain K12))" label_class=inactive
molecule="Oc1cc2c(c(Cl)c1O)CCNCC2c1ccccc1 (stereo not given)" experimental_target="Endonuclease 4 (Escherichia coli (strain K12))" label_class=inactive
molecule="NC(CCC(=O)NCS(=O)(=O)O)C(=O)O (stereo not given)" experimental_target="Endonuclease 4 (Escherichia coli (strain K12))" label_class=inactive

Q: # fetch the recorded call for `NCCNS(=O)(=O)c1cccc2cnccc12` here
A: inactive

Q: # fetch the recorded call for `O=C(Nc1cc(C(=O)Nc2ccc(S(=O)(=O)O)cc2S(=O)(=O)O)cc(C(=O)Nc2ccc(S(=O)(=O)O)cc2S(=O)(=O)O)c1)Nc1cc(C(=O)Nc2ccc(S(=O)(=O)O)cc2S(=O)(=O)O)cc(C(=O)Nc2ccc(S(=O)(=O)O)cc2S(=O)(=O)O)c1` here
A: active

Q: # fetch the recorded call for `N#C/C(=C\c1ccc(O)c(O)c1)C(=O)Nc1ccccc1` here
A: inactive

Q: # fetch the recorded call for `C1CCC(N=C(NC23CC4CC(CC(C4)C2)C3)N2CCOCC2)CC1` here
A: inactive

Q: # fetch the recorded call for Cc1ccc(OCC(O)C(C)NC(C)C)c2c1CCC2 (stereo not given) here
A: inactive

###

# EXPERIMENTAL TARGET: Cytochrome P450 2C9 (Homo sapiens) (UniProt P11712)
# Sequence (P11712 whole entry, looked up): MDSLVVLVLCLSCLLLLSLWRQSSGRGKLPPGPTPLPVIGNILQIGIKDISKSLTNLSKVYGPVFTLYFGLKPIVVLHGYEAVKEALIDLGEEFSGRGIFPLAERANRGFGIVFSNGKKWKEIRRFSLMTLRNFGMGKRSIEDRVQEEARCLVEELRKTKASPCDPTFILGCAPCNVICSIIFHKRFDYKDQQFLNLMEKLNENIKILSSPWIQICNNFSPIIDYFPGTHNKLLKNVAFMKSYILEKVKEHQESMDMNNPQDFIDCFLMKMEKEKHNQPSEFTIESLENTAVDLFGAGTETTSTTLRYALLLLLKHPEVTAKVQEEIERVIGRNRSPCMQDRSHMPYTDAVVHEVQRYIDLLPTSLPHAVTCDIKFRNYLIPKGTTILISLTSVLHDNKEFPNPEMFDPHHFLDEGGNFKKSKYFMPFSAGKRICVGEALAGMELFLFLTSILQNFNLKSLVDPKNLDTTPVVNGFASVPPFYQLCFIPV
# ASSAY REMARKS: qHTS Assay for Inhibitors and Substrates of Cytochrome P450 2C9 (AID 883); note: nearly all actives have a fitted effect of over 60% in size
# CONDITION INFO: recombinant CYP2C9, luciferin-H luminescence, 60 min; series mostly up to 57.1 µM
Results filed as inconclusive are left out. Calls of active or inactive are those of the source. The call rests on the fitted dose curve; in most records, active means well fitted inhibition curve with a large enough effect; inconclusive means small, poorly fitted or top-dose-only effect; inactive means no such curve, though single readings can be large or run the other way.
Return exactly one item of active, inactive

Solved entries:
molecule=CC(C)[C@@H]1[C@H]2CC[C@H](C2)[C@H]1N experimental_target="Cytochrome P450 2C9 (Homo sapiens) (UniProt P11712)" label_class=inactive
molecule=CS(=O)(=O)c1ccc(-c2cc(Br)sc2-c2ccc(F)cc2)cc1 experimental_target="Cytochrome P450 2C9 (Homo sapiens) (UniProt P11712)" label_class=active
molecule=Oc1cc2c(cc1O)[C@H](c1ccccc1)CNCC2 experimental_target="Cytochrome P450 2C9 (Homo sapiens) (UniProt P11712)" label_class=inactive

Q: # fetch the recorded call for `CN(C)CCCSc1ccccc1NC(=O)/C=C\c1ccccc1` here
A: inactive

Q: # fetch the recorded call for `O=C(OCCN1CCCCC1)c1c[nH]c2ccccc12` here
A: active

Q: # fetch the recorded call for `O=C(O)[C@H]1CN(CCCP(=O)(O)O)CCN1` here
A: inactive

###

# Test system: Zika virus NS2B-NS3 protease (linked construct)
# ASSAY REMARKS: Primary screen NINDS Rhodamine qHTS for Zika virus inhibitors (AID 1347160); note: nearly all actives have a fitted effect of over 55% in size
# CONDITION INFO: purified NS2B-NS3 protease, Rhodamine110 substrate fluorescence; series mostly up to 57.1 µM
# From the text: Avindra Nath, Ph.D., National Institute of Neurological Disorders and Stroke (NINDS), Bethesda, MD Radhakrishnan Padmanabhan, Ph.D., Georgetown University (GU), Washington D.C. Zika Virus causes congenital defects, including microcephaly and is associated with Guillain-Barre syndrome, eningoencephalitis and myelitis in infected adult. […]
Inconclusive results are not listed. Activity calls are given as the source filed them. The call rests on the fitted dose curve; in most records, active means well fitted inhibition curve with a large enough effect; inconclusive means small, poorly fitted or top-dose-only effect; inactive means no such curve, though single readings can be large or run the other way.
Return exactly one item of 1 (yes) (active), 0 (no) (inactive)

Solved entries:
molecule=COc1ccc(-c2c(C)c(C(=O)NN3CCCCC3)nn2-c2ccc(Cl)cc2Cl)cc1 label_class="0 (no)"
molecule=COc1ccc2c(c1)CN(C(=O)CCN1CCC(Cc3ccccc3)CC1)CCS2 label_class="0 (no)"
molecule=CCN(CCCOc1ccc2c(Nc3cc(CC(=O)Nc4cccc(F)c4)[nH]n3)ncnc2c1)CCOP(=O)(O)O label_class="0 (no)"

Q: # fetch the recorded call for `CCS(=O)(=O)N(Cc1cccnc1)c1cccc(-c2ccc(C#N)cc2)c1` here
A: 0 (no)

Q: # fetch the recorded call for CC1C(=O)C23CCC1C[C@]21O[C@@H]2C(C)(C)C=CC(=O)[C@@]23COC1=O (some centres undefined) here
A: 1 (yes)

Q: # fetch the recorded call for `CC1(C)[C@H](Br)CC[C@]23C[C@]4(C)C(=O)CC12C[C@H]34` here
A: 0 (no)

Q: # fetch the recorded call for O=C1c2c(O[C@@H]3O[C@H](CO)[C@@H](O)[C@H](O)[C@H]3O)cc(O)cc2OC1(O)Cc1ccc(O)cc1 (some centres undefined) here
A: 0 (no)

Q: # fetch the recorded call for CC1C(=O)C23CCC1C[C@@]21O[C@H]2C(C)(C)C=CC(=O)[C@@]23COC1=O (some centres undefined) here
A: 0 (no)

Q: # fetch the recorded call for `C=CC(=O)N1CCN(C(=O)c2cc(-c3cc(Cl)ccc3Cl)c(Cl)cc2OC)CC1` here
A: 0 (no)

Q: # fetch the recorded call for `COc1cc(N2CCOCC2)ccc1Nc1ncc(F)c(Nc2ccccc2NS(C)(=O)=O)n1` here
A: 0 (no)

Q: # fetch the recorded call for `CCOC(=O)c1cnn(-c2ccc(NC(=O)C(Cl)=C(Cl)Cl)cc2)c1C(F)(F)F` here
A: 0 (no)

Q: # fetch the recorded call for C=C(C)C(=O)OC1[C@@H]2C(=C)C(=O)O[C@@H]2C[C@@H](C)[C@@H]2C=CC(=O)[C@@]12C (some centres undefined) here
A: 0 (no)

Q: # fetch the recorded call for `Cc1ccccc1C(=O)Nc1ccc(C(=O)N2CCC[C@@H](O)c3cc(Cl)ccc32)c(C)c1` here
A: 0 (no)

Q: # fetch the recorded call for CC1OC2O[C@H]3[C@@H](OCC(O)[C@H]3O)OC(=O)C34CCC(C)(C)CC3C3=CCC5C6(C)CC(O)C(OC7OC(CO)C(O)C(O)C7O[C@@H]7OC[C@H](OC(=O)CC(C)(O)CC(=O)OC1C(OC1OCC(O)C(O)C1O)C2O)[C@@H](O)[C@H]7O)C(C)(CO)C6CCC5(C)C3(C)CC4 (some centres undefined) here
A: 0 (no)

Q: # fetch the recorded call for `CN(Cc1ccc(C(=O)O)cc1)c1ccc(OCc2c(-c3c(Cl)cccc3Cl)noc2C2CC2)nc1C(F)(F)F` here
A: 1 (yes)

Q: # fetch the recorded call for `CN1CCc2cc3c(c4c2[C@H]1[C@@H](O)c1ccccc1-4)OCO3` here
A: 1 (yes)

Q: # fetch the recorded call for CC1CCC2C(C)(C)C(O)CCC2(C)C12Cc1c(O)cc3c(c1O2)CN(C(CCCN=C(N)N)C(=O)O)C3=O (centres undefined) here
A: 0 (no)

Q: # fetch the recorded call for `COc1ccc(Cl)cc1[C@@]1(F)C(=O)Nc2cc(C(F)(F)F)ccc21` here
A: 0 (no)

Q: # fetch the recorded call for `CN(C)C(=O)c1cc2cnc(Nc3ccc(N4CCNCC4)cn3)nc2n1C1CCCC1` here
A: 0 (no)
